System: mRNA
Experiment: mRNA encapsulation (modified Quant-iT RiboGreen assay)
Format: physicochemical
Conditions: RiboGreen, without vs with Triton X-100
Non-standard residues stand in square brackets, D forms with d. Residues, ends and D or L forms follow the SMILES beside them. *: point of attachment. Gly(N-(3-decanoyloxypropyl)) = CCCCCCCCCC(=O)OCCCNCC(=O)O; Gly(N-(CH2)3O-octanoyl) = CCCCCCCC(=O)OCCCNCC(=O)O; N(3-imidazol-1-ylpropyl)Gly = O=C(O)CNCCCn1ccnc1; Gly(N-3-morpholinopropyl) = O=C(O)CNCCCN1CCOCC1; N(2-ethylhexyl)Gly = CCCCC(CC)CNCC(=O)O; NDecylGly = CCCCCCCCCCNCC(=O)O; For = O=C*
property: mean percent encapsulation of RNA (%)
Entry rule: numbers only, all in %.

Prompt line: Quick one: mean percent encapsulation of RNA for CCCCCCCCCCN(C=O)CC(=O)N(CCCOC(=O)CCCCCCC)CC(=O)N(CC(=O)N(CCCn1ccnc1)CC(=O)N(CC(=O)N(CCCOC(=O)CCCCCCC)CC(=O)N(CCCCCCCCCC)CC(N)=O)CC(CC)CCCC)CC(CC)CCCC (stereo not drawn) [Compound 114] (For-[NDecylGly][Gly(N-(CH2)3O-octanoyl)][N(2-ethylhexyl)Gly][N(3-imidazol-1-ylpropyl)Gly][N(2-ethylhexyl)Gly][Gly(N-(CH2)3O-octanoyl)][NDecylGly]-NH2) ?
Response line: 40.7

Prompt line: For CCCCCCCCCC(=O)OCCCN(C=O)CC(=O)N(CCCOC(=O)CCCCCCCCC)CC(=O)N(CC(=O)N(CCCN1CCOCC1)CC(=O)N(CCCOC(=O)CCCCCCCCC)CC(=O)N(CCCOC(=O)CCCCCCCCC)CC(=O)N(CC(N)=O)CC(CC)CCCC)CC(CC)CCCC (stereo not drawn) [Compound 112] (For-[Gly(N-(3-decanoyloxypropyl))][Gly(N-(3-decanoyloxypropyl))][N(2-ethylhexyl)Gly][Gly(N-3-morpholinopropyl)][Gly(N-(3-decanoyloxypropyl))][Gly(N-(3-decanoyloxypropyl))][N(2-ethylhexyl)Gly]-NH2) , what is its reported mean percent encapsulation of RNA?
Response line: 39.2

FYI, the data here is from patent US20260373248A1.
